- target-under-test: Human thrombin (Homo sapiens)
- Construct: Human thrombin (8.3 mg/ml) was obtained from Hematologic Technologies Inc; purchased Hematologic Technologies Inc. (Essex Junction, VT, USA)
- experiment-notes: Thrombin induced hydrolysis of specific substrates in buffer system
- Type: biochemical
- condition-summary: chromogenic substrate Tosyl-Gly-Pro-Arg-p-nitroanilide; calculated assuming competitive inhibition, KM 9.44 µM; read-out: KI for thrombin inhibition in buffer system
# log10 Ki values compiled below
The figures below represent log10 of Ki, where Ki is stated in nM.

In: Sample `CNC(=N)SCCOc1cc(C)cc(OS(=O)(=O)c2ccccc2Cl)c1.I` — what was its log10 Ki?
Out: 0.76

In: What measured log10 Ki goes with `Cc1cc(OCCCSC(=N)N)cc(OS(=O)(=O)c2ccccc2F)c1.I` ?
Out: 0.31

In: Recorded log10 Ki for `Cc1cc(OCCSC(=N)N)cc(OS(=O)(=O)c2ccccc2)c1.I` , please?
Out: -0.02

In: Please report the recorded log10 Ki for `Cc1cc(OCC[n+]2ccc(N)cc2)cc(OS(=O)(=O)c2ccccc2Cl)c1.[I-]` .
Out: -0.68

In: Requested read-out: log10 Ki. Entry: `Cc1cc(OCC[n+]2ccc(N)cc2)cc(OS(=O)(=O)c2ccccc2)c1.[I-]`
Out: -0.11

---

- Tested on: C57Bl/6 mice
- experiment-notes: Acute toxicity in mice
- Assay type: in vivo, mouse
- condition-summary: females, mortality after 2 or less hours
- Protocol: Preliminary safety examination for the best synthesized inhibitors was carried out by measuring their acute toxicity in C57Bl/6 mice (females, 26–28 g, intraperitoneal administration). The total number of animals used in each experiment was 20–35. The dose of inhibitor that caused mortality in half of the animals after 2 or less hours (LD50) was determined. […]
Marks after values point to notes of the source that are not given here.
Quick reference for LD50 (mouse), intraperitoneal administration among some compounds

Completed entries (count: 8):
In: Which LD50 (mouse), intraperitoneal administration value belongs to `Cc1cc(OCC[n+]2ccc(N)cc2)cc(OS(=O)(=O)c2ccc(Cl)cc2)c1.[I-]` ?
Out: 372.7 ± 84.6 mg/kg

In: Could you share which LD50 (mouse), intraperitoneal administration value was measured for `Cc1cc(OCCSC(=N)N)cc(OS(=O)(=O)c2ccccc2)c1.I` ?
Out: >1111.1 mg/kg

In: Form field: reported LD50 (mouse), intraperitoneal administration of `Cc1cc(OCCSC(=N)N)cc(OS(=O)(=O)c2ccccc2S(C)(=O)=O)c1.I`
Out: >458.0 ^5) mg/kg

In: Can you share its LD50 (mouse), intraperitoneal administration? I mean this compound: `Cc1cc(OCC[n+]2ccc(N)cc2)cc(OS(=O)(=O)c2ccccc2F)c1.[I-]`
Out: 523.1 ± 92.3 mg/kg

In: Suppose we examine the compound `CNC(=N)SCCOc1cc(C)cc(OS(=O)(=O)c2ccccc2Cl)c1.I` ; what LD50 (mouse), intraperitoneal administration value has been reported?
Out: >287.0 ^5) mg/kg

In: Field request: LD50 (mouse), intraperitoneal administration | item: `Cc1cc(OCCSC(=N)N)cc(OS(=O)(=O)c2ccccc2Cl)c1.I`
Out: 793.5 ± 118.5 mg/kg

In: Which LD50 (mouse), intraperitoneal administration is listed for `Cc1cc(OCC[n+]2ccc(N)cc2)cc(OS(=O)(=O)c2ccccc2S(C)(=O)=O)c1.[I-]` ?
Out: 166.7 ± 20.0 mg/kg

In: What does the record list as LD50 (mouse), intraperitoneal administration for `Cc1cc(OCCCSC(=N)N)cc(OS(=O)(=O)c2ccccc2F)c1.I` ?
Out: >653.1 ^5) mg/kg

Further cases:
In: Could you share which LD50 (mouse), intraperitoneal administration value was measured for `Cc1cc(OCC[n+]2ccc(N)cc2)cc(OS(=O)(=O)c2ccccc2Cl)c1.[I-]` ?
Out: 679.0 ± 152.7 mg/kg

In: Param item = `Cc1cc(OCC[n+]2ccc(N)cc2)cc(OS(=O)(=O)c2ccccc2)c1.[I-]` ; retrieve measured LD50 (mouse), intraperitoneal administration.
Out: 418.9 ± 33.0 mg/kg

---

Below, each of the compounds is paired with its reported Ki value.
- target-under-test: Human thrombin (Homo sapiens, UniProt P00734)
- Construct: Human thrombin (8.3 mg/ml) was obtained from Hematologic Technologies Inc; purchased Hematologic Technologies Inc. (Essex Junction, VT, USA)
- experiment-notes: Thrombin induced hydrolysis of specific substrates in buffer system
- Assay type: biochemical
- condition-summary: chromogenic substrate (SCHR); calculated assuming competitive type of inhibition; read-out: Inhibition of thrombin activity (in buffer system) Ki
Enter your answer as a number in µM; do not include the unit.

Below, 3 compounds whose answers are already recorded.
In: Requested read-out: Ki. Entry: `Cc1cc(OCCCSC(=N)N)cc(OS(=O)(=O)c2ccccc2)c1`
Out: 0.0084

In: Recorded Ki of `CNC(=N)SCCCOc1cc(C)cc(OS(=O)(=O)c2ccccc2Cl)c1` , please.
Out: 0.474

In: Entry under review: `Cc1cc(OCCC[n+]2ccc(N)cc2)cc(OS(=O)(=O)c2ccccc2Cl)c1` . Reported Ki?
Out: 0.293

In the following, a different compound is considered.
In: # lookup: Ki of `Cc1cc(OCCCSC(=N)N)cc(OS(=O)(=O)c2ccccc2Cl)c1`
Out: 0.001

---

- target-under-test: Human thrombin (Homo sapiens)
- Construct: Human thrombin (8.3 mg/ml) was obtained from Hematologic Technologies Inc; purchased Hematologic Technologies Inc. (Essex Junction, VT, USA)
- experiment-notes: Thrombin induced hydrolysis of specific substrates in buffer system
- Type: biochemical
- condition-summary: chromogenic substrate (SCHR); read-out: Inhibition of thrombin activity (in buffer system) IC50
reported-property: pIC50
Remember the convention: pIC50 equals -log10 of concentration in molar.

Example cases with answers are listed next.
In: # get_value(readout= pIC50, system= Human thrombin (Homo sapiens)) for `CNC(=N)SCCOc1cc(C)cc(OS(=O)(=O)c2ccccc2Cl)c1.I`
Out: 7.18

In: Under Human thrombin (Homo sapiens): pIC50 value of `Cc1cc(OCCC[n+]2ccc(N)cc2)cc(OS(=O)(=O)c2ccccc2Cl)c1` ?
Out: 5.47

In: I'm curious: which pIC50 was measured for `Cc1cc(OCCSC(=N)N)cc(OS(=O)(=O)c2ccccc2S(C)(=O)=O)c1.I` tested on Human thrombin (Homo sapiens)?
Out: 7.77

In: Provide the documented pIC50 with Human thrombin (Homo sapiens) as the system for `Cc1cc(OCC[n+]2ccc(N)cc2)cc(OS(=O)(=O)c2ccccc2S(C)(=O)=O)c1.[I-]`
Out: 8.06

In: Give the reported pIC50 for `Cc1cc(OCCSC(=N)N)cc(OS(=O)(=O)c2ccccc2)c1.I` (system: Human thrombin (Homo sapiens)).
Out: 7.96

In: Observed pIC50 on Human thrombin (Homo sapiens) for `Cc1cc(OCC[n+]2ccc(N)cc2)cc(OS(=O)(=O)c2ccccc2)c1.[I-]` , please.
Out: 8.05

In: Fill in the recorded pIC50 for this compound, with Human thrombin (Homo sapiens) as test system: `Cc1cc(OCC[n+]2ccc(N)cc2)cc(OS(=O)(=O)c2ccccc2F)c1.[I-]`
Out: 8.46

In: Field: pIC50 (Human thrombin (Homo sapiens)). Entry: `Cc1cc(OCCSC(=N)N)cc(OS(=O)(=O)c2ccccc2Cl)c1.I`
Out: 8.42

***
In: Give Human thrombin (Homo sapiens) pIC50 for `Cc1cc(OCCCSC(=N)N)cc(OS(=O)(=O)c2ccccc2)c1`
Out: 7.01

---

- target-under-test: Human thrombin (Homo sapiens)
- Construct: Human thrombin (8.3 mg/ml) was obtained from Hematologic Technologies Inc; purchased Hematologic Technologies Inc. (Essex Junction, VT, USA)
- experiment-notes: Thrombin induced hydrolysis of specific substrates in buffer system
- Type: biochemical
- condition-summary: chromogenic substrate (SCHR); calculated from IC50 assuming a competitive mechanism of inhibition; read-out: Inhibition of specific thrombin substrate hydrolysis in buffer system KI
reported-property: pKi
// pKi is dimensionless: -log10 of concentration (M)

In: // query pKi value for entry `N=C(N)c1ccc(-c2ccc(-c3ccc(C(=N)N)cc3)o2)cc1`
Out: 5.21

---

- Tested on: thrombin generation in normal donor plasma (PPP)
- experiment-notes: Thrombin generation test in plasma (endogenous thrombin potential, ETP)
- Assay type: biochemical, human
- condition-summary: Table S2; read-out: IC50 for ETP reduction in plasma
- Procedure: The kinetics of thrombin generation in plasma was monitored using a modification of the standard method using a slow fluorogenic substrate BOC-Ile-Gly-Arg-AMC [8]. […] The kinetics of accumulation of the fluorescent reaction product 7-amino-4-methylcoumarine (AMC) was recorded for 65 min with a fluorometric Fluoroscan II reader (LabSystem, Finland) (λex. = 380 nm; λem. = 440 nm). […] The area under the thrombin time curve over a period of 60 min (endogenous thrombin potential, ETP) was determined.
Consider the following compounds and their measured pIC50 readings.
Interpret pIC50 as the negative base-10 log of the concentration measured in mol/L.

In: Given the compound `CNC(=N)SCCCOc1cc(C)cc(OS(=O)(=O)c2ccccc2Cl)c1` , what is its reported pIC50?
Out: 4.60

Continuing:
In: So what does the record say about pIC50 for `Cc1cc(OCCCSC(=N)N)cc(OS(=O)(=O)c2ccccc2)c1` ?
Out: 5.10

In: Please report the recorded pIC50 for `Cc1cc(OCCCSC(=N)N)cc(OS(=O)(=O)c2ccccc2Cl)c1` .
Out: 5.39

In: Can you share its pIC50? I mean this compound: `Cc1cc(OCCC[n+]2ccc(N)cc2)cc(OS(=O)(=O)c2ccccc2Cl)c1`
Out: 4.40
